Target: Catenin beta-1/Cadherin-1 (Homo sapiens, UniProt P35222)
Sequence (P35222 whole entry): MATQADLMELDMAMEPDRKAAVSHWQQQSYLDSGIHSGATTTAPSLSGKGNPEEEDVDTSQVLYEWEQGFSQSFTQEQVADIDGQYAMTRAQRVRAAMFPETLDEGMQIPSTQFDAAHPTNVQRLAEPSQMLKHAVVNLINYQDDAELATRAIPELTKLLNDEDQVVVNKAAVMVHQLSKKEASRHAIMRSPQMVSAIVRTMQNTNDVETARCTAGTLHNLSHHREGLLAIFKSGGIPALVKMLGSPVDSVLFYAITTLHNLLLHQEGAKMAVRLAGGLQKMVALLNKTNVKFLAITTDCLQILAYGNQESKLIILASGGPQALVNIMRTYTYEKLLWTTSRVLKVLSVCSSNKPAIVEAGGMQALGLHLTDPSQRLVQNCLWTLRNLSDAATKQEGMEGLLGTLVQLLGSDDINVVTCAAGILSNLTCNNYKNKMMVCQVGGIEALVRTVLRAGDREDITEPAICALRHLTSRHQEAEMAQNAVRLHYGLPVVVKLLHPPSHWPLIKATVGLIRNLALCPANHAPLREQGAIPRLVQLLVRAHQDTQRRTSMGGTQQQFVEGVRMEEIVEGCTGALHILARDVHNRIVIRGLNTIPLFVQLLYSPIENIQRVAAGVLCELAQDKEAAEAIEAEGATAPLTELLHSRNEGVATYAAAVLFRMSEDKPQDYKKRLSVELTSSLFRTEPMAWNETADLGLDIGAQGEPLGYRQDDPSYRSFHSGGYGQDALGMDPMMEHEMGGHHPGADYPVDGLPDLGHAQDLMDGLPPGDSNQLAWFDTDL
Sequence (P12830 whole entry): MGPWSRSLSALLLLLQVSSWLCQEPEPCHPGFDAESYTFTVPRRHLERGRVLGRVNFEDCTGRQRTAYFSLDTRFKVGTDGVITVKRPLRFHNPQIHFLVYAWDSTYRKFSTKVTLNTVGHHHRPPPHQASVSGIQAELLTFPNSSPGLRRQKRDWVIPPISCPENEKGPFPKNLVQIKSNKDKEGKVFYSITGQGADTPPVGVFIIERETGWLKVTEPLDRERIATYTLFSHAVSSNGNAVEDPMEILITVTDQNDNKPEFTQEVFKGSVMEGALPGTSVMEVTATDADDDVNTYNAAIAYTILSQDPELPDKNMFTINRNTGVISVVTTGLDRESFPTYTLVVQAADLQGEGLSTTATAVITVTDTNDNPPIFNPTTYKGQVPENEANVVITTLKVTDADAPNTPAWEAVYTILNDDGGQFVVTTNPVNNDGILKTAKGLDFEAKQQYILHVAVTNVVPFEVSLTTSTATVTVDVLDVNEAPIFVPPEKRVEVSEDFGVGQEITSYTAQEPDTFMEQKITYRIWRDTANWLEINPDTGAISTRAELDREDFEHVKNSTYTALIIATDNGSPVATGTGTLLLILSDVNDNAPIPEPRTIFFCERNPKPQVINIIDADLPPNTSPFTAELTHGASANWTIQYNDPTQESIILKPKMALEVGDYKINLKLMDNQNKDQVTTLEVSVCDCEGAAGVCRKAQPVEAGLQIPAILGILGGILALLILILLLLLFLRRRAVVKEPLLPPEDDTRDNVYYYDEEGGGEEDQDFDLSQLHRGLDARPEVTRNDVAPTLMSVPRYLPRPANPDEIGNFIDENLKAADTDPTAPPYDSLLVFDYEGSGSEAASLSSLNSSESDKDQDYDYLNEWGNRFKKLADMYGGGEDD
Experiment: Inhibition of full length beta-catenin (1 to 686 residues) (unknown origin) expressed in Escherichia coli BL21 (DE3)/N-terminal biotinylated human E-cadherin (824 to 877 residues) protein-protein interaction assessed as inhibition constant incubated for 2 hr by Alphascreen assay
measurement_type: Ki (µM)
Just the number in µM, nothing appended.

Task item: Which Ki value is on record for CC(C)(C)C1CCC(c2cc(C(=O)N3CCC(Oc4cc(N5CCNCC5)ccc4C#N)CC3)ccc2O[C@H]2CCNC2)CC1.Cl.Cl (mixture of isomers; cis) ?
Reply: 19
